Taken from ChEMBL document CHEMBL2380216.

I'd be grateful if you could share measured fraction unbound for these entries.
# assayProtocol: Fraction unbound in rat plasma
# Format: ADME, cell-free

smilesEntry | resultValue
Cc1nc(-c2cnn(C)c2-c2ccc(C(F)(F)F)cc2)c2c(N3CC(F)C3)ncnn12 | 0.24

Exercise: Please supply the value of reported fraction unbound for the item COc1ccc(-c2c(-c3nc(C)n4ncnc(N5CCC5)c34)cnn2C)c(C)c1
Key: 0.29

* * *

# testTarget: cGMP-dependent 3',5'-cyclic phosphodiesterase (Homo sapiens, UniProt O00408)
# Sequence (O00408 whole entry): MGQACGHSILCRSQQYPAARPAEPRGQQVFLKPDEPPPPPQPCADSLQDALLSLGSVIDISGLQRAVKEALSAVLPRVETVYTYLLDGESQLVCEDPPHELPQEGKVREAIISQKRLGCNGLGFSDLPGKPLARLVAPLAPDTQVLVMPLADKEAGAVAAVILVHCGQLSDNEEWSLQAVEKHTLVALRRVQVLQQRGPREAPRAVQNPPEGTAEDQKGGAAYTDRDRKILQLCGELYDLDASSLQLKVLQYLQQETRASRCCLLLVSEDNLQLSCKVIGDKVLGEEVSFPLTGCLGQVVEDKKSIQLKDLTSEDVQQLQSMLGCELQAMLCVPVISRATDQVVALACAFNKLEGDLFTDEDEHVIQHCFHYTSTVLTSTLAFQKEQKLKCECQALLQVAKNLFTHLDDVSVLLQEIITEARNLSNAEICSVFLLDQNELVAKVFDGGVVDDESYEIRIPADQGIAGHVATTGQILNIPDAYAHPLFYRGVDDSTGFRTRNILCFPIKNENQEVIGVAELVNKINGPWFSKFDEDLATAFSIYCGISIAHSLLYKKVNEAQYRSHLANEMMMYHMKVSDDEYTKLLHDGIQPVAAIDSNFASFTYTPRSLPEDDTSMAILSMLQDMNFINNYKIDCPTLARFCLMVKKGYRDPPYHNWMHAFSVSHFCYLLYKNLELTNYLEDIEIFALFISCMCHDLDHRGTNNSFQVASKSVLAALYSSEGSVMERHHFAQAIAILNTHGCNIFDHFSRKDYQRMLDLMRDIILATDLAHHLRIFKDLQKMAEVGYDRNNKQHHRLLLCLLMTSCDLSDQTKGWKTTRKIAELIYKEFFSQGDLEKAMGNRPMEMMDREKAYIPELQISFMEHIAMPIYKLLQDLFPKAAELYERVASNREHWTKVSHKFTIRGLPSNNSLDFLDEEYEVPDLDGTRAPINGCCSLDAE
# assayProtocol: Inhibition of full length recombinant human PDE2A expressed in Sf21 cells using [3H]-cGMP as substrate by scintillation proximity assay
metricName: IC50 (nM)
One number for each entry, in nM.

Exercise: Please supply the value of reported IC50 for the item Cc1nc(-c2cnn(C)c2-c2ccc(C(F)(F)F)cc2)c2c(N3CC(F)C3)ncnn12
Key: 0.53

* * *

# testTarget: High affinity cGMP-specific 3',5'-cyclic phosphodiesterase 9A (Homo sapiens)
# Sequence (O76083 whole entry): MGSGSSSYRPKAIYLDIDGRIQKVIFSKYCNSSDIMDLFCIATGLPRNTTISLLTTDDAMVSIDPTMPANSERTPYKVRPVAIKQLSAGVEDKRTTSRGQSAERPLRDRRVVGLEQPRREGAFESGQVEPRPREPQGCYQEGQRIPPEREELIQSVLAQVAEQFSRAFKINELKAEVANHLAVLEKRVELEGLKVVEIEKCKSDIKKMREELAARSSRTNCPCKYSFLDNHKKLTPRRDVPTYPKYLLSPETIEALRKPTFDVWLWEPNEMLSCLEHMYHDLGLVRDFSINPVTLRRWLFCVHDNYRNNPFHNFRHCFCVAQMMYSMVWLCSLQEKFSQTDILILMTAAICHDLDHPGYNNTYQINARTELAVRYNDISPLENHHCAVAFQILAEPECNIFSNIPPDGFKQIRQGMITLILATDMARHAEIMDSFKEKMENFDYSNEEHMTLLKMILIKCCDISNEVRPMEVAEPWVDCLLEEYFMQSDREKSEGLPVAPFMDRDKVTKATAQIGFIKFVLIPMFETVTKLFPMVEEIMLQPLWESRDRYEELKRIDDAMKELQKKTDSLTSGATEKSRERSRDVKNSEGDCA
pIC50: −log10 of the molar value.
metricName: pIC50

Exercise: Report value: pIC50, system: High affinity cGMP-specific 3',5'-cyclic phosphodiesterase 9A (Homo sapiens), compound: Cc1nc(-c2cnn(C)c2-c2ccc(C(F)(F)F)cc2)c2c(N3CC(F)C3)ncnn12
Key: < 5.00

* * *

I'd be grateful if you could share measured Papp A→B for these entries.
# assayProtocol: Apparent permeability across apical to basolateral side in dog RRCK cells
# Format: ADME, cell-based, Canis lupus familiaris, MDCKII-LE
# conditionContext: MDCK
Numbers only, in ×10⁻⁶ cm/s.

smilesEntry | resultValue
COc1ccc(-c2c(-c3nc(C)n4ncnc(N5CCC5)c34)cnn2C)c(C)c1 | 42

Hi team, please reply with Papp A→B for each item in this list.
1. Cn1ncc(-c2nn(C)c3ncnc(N4CCC4)c23)c1-c1ccc(C(F)(F)F)cc1
2. Cc1nc(-c2cnn(C)c2-c2ccc(C(F)(F)F)cc2)c2c(N3CC(F)C3)ncnn12

Key:
21.5
21

* * *

# testTarget: Dual specificity calcium/calmodulin-dependent 3',5'-cyclic nucleotide phosphodiesterase 1B (Homo sapiens, UniProt Q01064)
# Sequence (Q01064 whole entry): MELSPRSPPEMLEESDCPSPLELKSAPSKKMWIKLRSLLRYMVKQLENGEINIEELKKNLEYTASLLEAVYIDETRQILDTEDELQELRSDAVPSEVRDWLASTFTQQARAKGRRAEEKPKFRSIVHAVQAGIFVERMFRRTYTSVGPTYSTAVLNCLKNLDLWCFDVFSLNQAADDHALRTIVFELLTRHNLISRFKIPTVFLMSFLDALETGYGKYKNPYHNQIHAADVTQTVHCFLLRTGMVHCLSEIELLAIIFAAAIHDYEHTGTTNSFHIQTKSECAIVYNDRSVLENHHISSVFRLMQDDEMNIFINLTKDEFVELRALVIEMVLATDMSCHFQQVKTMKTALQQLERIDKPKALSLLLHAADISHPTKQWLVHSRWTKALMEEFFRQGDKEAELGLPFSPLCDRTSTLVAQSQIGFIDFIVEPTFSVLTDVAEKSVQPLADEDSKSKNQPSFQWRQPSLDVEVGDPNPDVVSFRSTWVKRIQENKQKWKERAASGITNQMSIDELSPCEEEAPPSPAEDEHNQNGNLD
# assayProtocol: Inhibition of PDE1B (unknown origin)
metricName: IC50

Exercise: Please supply the value of reported IC50 for the item Cc1nc(-c2cnn(C)c2-c2ccc(C(F)(F)F)cc2)c2c(N3CC(F)C3)ncnn12
Key: > 30 µM
